Give measured activation ratio for each item. Keep answers brief.
# Test system: adiponectin promoter
# PROCEDURE TEXT: Luciferase reporter screening of promoter transcriptional activity in stable C2C12 cell lines
# Type: cell-based, mouse
# STUDY CONDITIONS: 1 μM; C2C12 stable line, luciferase, 48 hours after stimulation, vs vehicle
# answer = number (no unit)

**Query** I am curious: what activation ratio value has been reported for O=C(Nc1nccs1)c1n[nH]c2ccccc12 [Compound 1] ?
**Result** 4.59

**Query** I am curious: what activation ratio value has been reported for O=C(Nc1nccs1)c1ccccn1 [Compound 3] ?
**Result** 1.71

**Query** I am curious: what activation ratio value has been reported for O=c1c(-c2ccc(O)cc2)coc2cc(O)ccc12 [Daidzein] ?
**Result** 1.68

**Query** I am curious: what activation ratio value has been reported for O=c1c(-c2ccc(O)cc2)coc2cc(O)cc(O)c12 [Genistein] ?
**Result** 1.47

----------
# Tested on: adiponectin promoter
# PROCEDURE TEXT: Luciferase reporter screening of promoter transcriptional activity in stable C2C12 cell lines
# Assay type: cell-based, mouse
# STUDY CONDITIONS: 50 μM; dose-response curve, C2C12 stable line, luciferase, vs vehicle
Give measured activation ratio for each item. Keep answers brief.

**Query** What is its activation ratio for adiponectin promoter? Entry: `O=c1c(-c2ccc(O)cc2)coc2cc(O)cc(O)c12`
**Result** 1.97

**Query** What is its activation ratio for adiponectin promoter? Entry: `O=C(Nc1nccs1)c1ccccn1`
**Result** 3.20

**Query** What is its activation ratio for adiponectin promoter? Entry: `O=C(Nc1nccs1)c1n[nH]c2ccccc12`
**Result** 2.29

**Query** What is its activation ratio for adiponectin promoter? Entry: `O=c1c(-c2ccc(O)cc2)coc2cc(O)ccc12`
**Result** 4.05

----------
Give measured activation ratio for each item. Keep answers brief.
# Test system: adiponectin promoter
# PROCEDURE TEXT: Luciferase reporter screening of promoter transcriptional activity in stable C2C12 cell lines
# Assay type: cell-based, mouse
# STUDY CONDITIONS: 100 μM; dose-response curve, C2C12 stable line, luciferase, vs vehicle

**Query** I am curious: what activation ratio value has been reported for `O=c1c(-c2ccc(O)cc2)coc2cc(O)cc(O)c12` ?
**Result** 1.75

**Query** I am curious: what activation ratio value has been reported for `O=c1c(-c2ccc(O)cc2)coc2cc(O)ccc12` ?
**Result** 3.71

**Query** I am curious: what activation ratio value has been reported for `O=C(Nc1nccs1)c1n[nH]c2ccccc12` ?
**Result** 0.71

**Query** I am curious: what activation ratio value has been reported for `O=C(Nc1nccs1)c1ccccn1` ?
**Result** 1.61
